The reported measurements were obtained from PubChem BioAssay (NCI).

testMethodNotes: NCI Yeast Anticancer Drug Screen. Data for the bub3 strain (AID 167)
measurementSetup: S. cerevisiae bub3 mutant strain, at 100.0 µM, stronger effect = higher value
About 79,000 compounds went through this panel and 15% of them were active in at least one assay; those are over-represented in the sample as a whole.
reportedEndpoint: growth inhibition (%)
Hi! Could you send only the number? It should be in %, unit omitted.

molecule | measurementUnits | growth inhibition
N#C/C(=C1C=C(Br)/C(=N\O)C=C\1Cl)c1cccc2ccccc12 | % | 95
COc1cc2c(cc1C[N+](C)(C)CSc1ccccc1)-c1ccccc1CC2 | % | 99
Cc1ccc(CNc2ccc(Br)cc2)cc1 | % | 91
CC(C)(C)[OH+][O-].[O-]c1ccc(Cl)cc1C=Nc1ccc(Cl)cc1[O-].[O]=[V] | % | 76
Cc1cc(Cl)ccc1NC(=O)/C(Cl)=C1/Sc2ccccc2NC1=O | % | 7
COc1cc(CNc2ccc(C(C)C)cc2)cc(OC)c1OC | % | 71
CN[C@@H]1C[C@H]2O[C@@](C)([C@@H]1OC)n1c3ccccc3c3c4c(c5c6ccccc6n2c5c31)C(=O)N[C@@H]4O | % | 74
CN(C)CCNc1cccc2sc3ccc(O)cc3c(=O)c12 | % | -4

# growth inhibition lookup, item S=C1SCN(CCc2ccccc2)CN1CCc1ccccc1
42

# growth inhibition lookup, item CO[C@@]12[C@H](COC(N)=O)C3=C(C(=O)C(C)=C(N)C3=O)N1C[C@@H]1N[C@@H]12
67

# growth inhibition lookup, item Nc1nc(F)nc2c1ncn2C1OC(COP(=O)(O)O)C(O)C1O (stereo unspecified)
-1

====

testMethodNotes: NCI Yeast Anticancer Drug Screen. Data for the rad50EPP+ strain (AID 151);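 further: 0% = growth of vehicle-treated control cultures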
measurementSetup: S. cerevisiae rad50 mutant strain, at 3.7 µM, stronger effect = higher value
About 79,000 compounds went through this panel and 15% of them were active in at least one assay; those are over-represented in the sample as a whole.
I would appreciate it if you labelled entries Yes when growth inhibition is 10% or higher, otherwise No.

See these solved cases before continuing.
compound | label
Cc1ccc2occ/c(=N\Nc3ccccc3)c2c1 | No
CN(C)c1ccc(N=Nc2ccccn2)cc1 | No
CCCc1[nH]nc(C(N)=O)c1N=NN(C)C | Yes
Cc1cc(C(C)(C)CC(C)(C)C)cc(O)c1O | Yes
Cc1ccc(N=Nc2ccc(O)c(C)c2)cc1 | Yes
N#CC(=S)Nc1cccc(Cl)c1 | No
CCCCCC(=O)c1ccc(O)cc1O | Yes
O=C(Nc1ccc2c(c1)Cc1c-2ccc([N+](=O)[O-])c1F)C(F)(F)F | No
Nc1ccc2c(c1)sc1ccccc12 | Yes
O=C1NC(c2c(Cl)cccc2Cl)Nc2ccccc21 (centres undefined) | No

Is growth inhibition at least 10%? Consider COc1ccc(N=Nc2ccc3oc(=O)c(C(=O)Nc4ccccc4)cc3c2)cc1
Yes

Is growth inhibition at least 10%? Consider CC(=O)CC(=O)/C=C/c1cccs1
No

Is growth inhibition at least 10%? Consider S=C1SCN(CCc2ccccc2)CN1CCc1ccccc1
Yes

Is growth inhibition at least 10%? Consider c1ccc2c(c1)ccc1c3ccncc3ccc21
Yes

====

testMethodNotes: NCI Yeast Anticancer Drug Screen. Data for the mec2-1 strain (AID 157)
measurementSetup: S. cerevisiae mec2-1 strain, at 1.2 µM, stronger effect = higher value
Compounds without any hit were thinned out: in the full panel of roughly 79,000, 15% have a hit.
reportedEndpoint: growth inhibition (%)
Hi! Could you send only the number? It should be in %, unit omitted.

Consider the following illustrative entries.
molecule | measurementUnits | growth inhibition
COc1cc(N(C)C)ccc1/C=C\c1ccnc2ccccc12 | % | -4
O=NN(CCCl)C(=O)NC1CCCCC1 | % | -1

# growth inhibition lookup, item COc1ccc2oc(-c3ccc(Cl)cc3)c(N3CCN(C)CC3)c2c1
-3

# growth inhibition lookup, item CCOc1ccc(C(=O)CCC(=O)O)c(C)c1
0

# growth inhibition lookup, item Cc1cc(OCc2ccccc2)ccc1[N+](=O)[O-]
2

# growth inhibition lookup, item Cc1ccc(S(=O)(=O)N(C)c2ccc(Cl)cc2C2=NCCc3ccccc32)cc1
-7

# growth inhibition lookup, item Nc1ccc(CCl)cc1Cc1c(O)ccc2ccccc12
1

# growth inhibition lookup, item O=C(NC(=S)Nc1ccccn1)c1ccccc1
-73

# growth inhibition lookup, item O=C1C=CC(=O)N1c1ccc(N2C(=O)C=CC2=O)cc1
46

====

Listing of entries alongside the reported growth inhibition.
testMethodNotes: NCI Yeast Anticancer Drug Screen. Data for the wt2 strain (AID 169);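 further: 0% = growth of vehicle-treated yeast cultures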
measurementSetup: S. cerevisiae wt2 strain growth inhibition; at 3.7 µM; stronger effect = higher value
Compounds without any hit were thinned out: in the full panel of roughly 79,000, 15% have a hit. The source made the active and inactive calls. Rule as the data show it: active = growth inhibition above about 70%; inactive = the rest.

smilesRepr | growth inhibition
CC(=O)[O-].O=C([CH-]C(=O)c1ccccc1)c1ccccc1.O=C([CH-]C(=O)c1ccccc1)c1ccccc1.[Sm+3] | 8% (inactive)

# growth inhibition lookup, item O=NN(CCCl)C(=O)NCCCl
-3% (inactive)

# growth inhibition lookup, item O=C(CNS(=O)(=O)Cc1ccccc1)NNc1ccccc1
2% (inactive)

# growth inhibition lookup, item O/N=C/C1c2ccccc2-c2ccccc21
-2% (inactive)

# growth inhibition lookup, item O=C(N/N=C\c1c(Cl)cccc1Cl)N/N=C/c1c(Cl)cccc1Cl
7% (inactive)

====

testMethodNotes: NCI Yeast Anticancer Drug Screen. Data for the bub3 strain (AID 167)
measurementSetup: S. cerevisiae bub3 mutant strain, at 3.7 µM, stronger effect = higher value
This is part of a sample that, as a whole, favours compounds with a hit. Of some 79,000 tested, about 15% had one in any assay.
reportedEndpoint: growth inhibition (%)
Hi! Could you send only the number? It should be in %, unit omitted.

compound | growth inhibition (%)
CC(C)c1cccc(O)c(=O)c1 | -2
COc1cc(NCc2ccc3nc(N)nc(N)c3c2C)cc(OC)c1OC | -15
CO[C@@]12[C@H](COC(N)=O)C3=C(C(=O)C(C)=C(N)C3=O)N1C[C@@H]1N[C@@H]12 | 3
CC(=O)Oc1ccc(C(=O)c2ccccc2)c(O)c1 | -38

# growth inhibition lookup, item Cc1ccc(S(=O)(=O)N/N=C/C2(c3ccccc3)c3ccccc3-c3ccccc32)cc1
9

# growth inhibition lookup, item COC(=O)c1ccc2c(c1)Cc1ccccc1-2
-7

# growth inhibition lookup, item O=C(Nc1ccc2c(c1)Cc1c-2ccc([N+](=O)[O-])c1F)C(F)(F)F
1

# growth inhibition lookup, item N#CC(=C1C=CC(=NO)C=C1)c1ccccc1
-19

# growth inhibition lookup, item CCOc1ccc(C(=O)CCC(=O)O)c(C)c1
-11

# growth inhibition lookup, item COc1ccc(N)c2c1C(=O)c1ccccc1C2=O
-24

# growth inhibition lookup, item NC(N)=NCCCS(=O)(=O)Nc1ccc(Nc2c3ccccc3nc3cc([N+](=O)[O-])ccc23)cc1
0

# growth inhibition lookup, item Nc1nc(F)nc2c1ncn2C1OC(COP(=O)(O)O)C(O)C1O (configuration not stated)
-8

====

testMethodNotes: NCI Yeast Anticancer Drug Screen. Data for the sgs1 mgt1 strain (AID 161);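 further: 0% = growth of cultures given vehicle only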
measurementSetup: S. cerevisiae sgs1 mgt1 strain, at 50.0 µM (retest, dose inferred, filed as 5.0)
Method: Growth inhibition of yeast strains with defined genetic alterations is measured as a screen for potential anti-cancer activity. Selected strains with alterations in DNA damage repair or cell cycle control were exposed to compounds and growth inhibition was measured relative to vehicle treated controls. The strain used in this assay is sgs1 mgt1
Compounds without any hit were thinned out: in the full panel of roughly 79,000, 15% have a hit. The source made the active and inactive calls. No stated cut-off is given here; in the data, active means growth inhibition above about 70%; inactive means the rest.
Just give me one of these, please: TRUE for active, FALSE for inactive

compound | label
Nc1ccc(S(=O)(=O)Nc2ccc(Nc3c4ccccc4nc4ccccc34)cc2)cc1 | FALSE

Given CC(=O)Oc1ccc(C(=O)c2ccccc2)c(O)c1 , state the outcome it received in this test.
TRUE

Given S=C1SCN(CCc2ccccc2)CN1CCc1ccccc1 , state the outcome it received in this test.
FALSE

Given CCCCCCCCCCCCCC(=O)OC(C)CCC1CCCO1 (stereo unspecified) , state the outcome it received in this test.
FALSE

Given O=C1NC(c2c(Cl)cccc2Cl)Nc2ccccc21 (stereo unspecified) , state the outcome it received in this test.
TRUE

Given CN(C)CCNc1cccc2sc3ccc(O)cc3c(=O)c12 , state the outcome it received in this test.
FALSE

Given COC(=O)CSc1nnc(CSc2ccc(Cl)cc2)n1-c1ccccc1 , state the outcome it received in this test.
FALSE

====

Listing of entries alongside the reported growth inhibition.
testMethodNotes: NCI Yeast Anticancer Drug Screen. Data for the bub3 strain (AID 167)
measurementSetup: S. cerevisiae bub3 mutant strain, at 50.0 µM (retest, dose inferred, filed as 5.0), stronger effect = higher value
Protocol: Growth inhibition of yeast strains with defined genetic alterations is measured as a screen for potential anti-cancer activity. Selected strains with alterations in DNA damage repair or cell cycle control were exposed to compounds and growth inhibition was measured relative to vehicle treated controls. The strain used in this assay is bub3
This is part of a sample that, as a whole, favours compounds with a hit. Of some 79,000 tested, about 15% had one in any assay.
Hi! Could you send only the number? It should be in %, unit omitted.

Consider the following illustrative entries.
molecule | numericReadout
N#Cc1sc2c(c1OC(=O)c1ccco1)c(=O)n(-c1ccccc1)c(=S)n2-c1ccccc1 | 91
CCCCC(=O)c1c(O)nc2sccn2c1=O | 92
CC(=O)CC(=O)/C=C/c1cccs1 | 53
C/C=C/[P+](c1ccccc1)(c1ccccc1)c1ccccc1 | 86
Clc1cc(Cc2ccc(N=C/C=C/c3ccccc3)c(Cl)c2)ccc1N=C/C=C\c1ccccc1 | 86

# growth inhibition lookup, item Nc1cc(F)cc2c1-c1ccc(F)cc1C2
27

# growth inhibition lookup, item COc1ccc(N)c2c1C(=O)c1ccccc1C2=O
72

# growth inhibition lookup, item O=[N+]([O-])c1c(/C=N/Nc2ccccc2)oc(-c2ccc3c(c2)OCO3)c1-c1ccc2c(c1)OCO2
-21

# growth inhibition lookup, item N#C/C(=C1C=C(Br)/C(=N\O)C=C\1Cl)c1cccc2ccccc12
93

# growth inhibition lookup, item CCN(CC)CC(O)C1CCC(c2ccccc2)CC1 (stereo not given)
87

# growth inhibition lookup, item Clc1c(Cl)c(Cl)c2c(nnn2C2CCCO2)c1Cl (stereo not given)
60

# growth inhibition lookup, item O=C(/C=N/O)Nc1cc(Cl)c(Cl)cc1Cl
89
